Experiment notes: NCI Yeast Anticancer Drug Screen. Data for the rad50 strain (AID 155)
Run conditions: S. cerevisiae rad50 strain growth inhibition; at 50.0 µM (retest, dose inferred, filed as 5.0)
This is part of a sample that, as a whole, favours compounds with a hit. Of some 79,000 tested, about 15% had one in any assay. Calls of active or inactive are those of the source. Rule as the data show it: active = growth inhibition above about 70%; inactive = the rest. *1 amine or outer side, *2 acyl side, *3 side chain or, on linkers, in order; H or OH if unused. Where a SMILES comes first, the peptide text is derived from it. Bridges are numbered along the chain shown (N, C = ends). Roman numbers before positions name the chains, in order. [ ]: non-standard residue; d: D form. Actinocin(1to9) = Cc1c2oc3c(C)ccc(C(=O)[*:2])c3nc-2c(C(=O)[*:1])c(N)c1=O; NMeV = CN[CH](C(=O)O)C(C)C; Sar = CNCC(=O)O
Result category, one only: active, inactive

These recorded examples may help you get a feel for the data.
INSERT INTO results (compound, assigned_category) VALUES
  ('Cc1cc(O)c(O)c(C(C)(C)CC(C)(C)C)c1', 'active'),
  ('O=C(/C=C/c1ccccc1)c1ccccc1O', 'active'),
  ('CCOS(=O)(=O)CC(C)(C)C', 'active'),
  ('CC1=CC[C@@H]2[C@@H](CC[C@@]2(C)O)C(C)(C)[C@H]1CC[C@@H]1[C@@]2(C)CC[C@@H](O)C(C)(C)O[C@@H]2CC[C@]1(C)O', 'inactive'),
  ('CCCCCCCCCCCCCCCC[N+]1(C)CCCC1c1cccnc1 (centres undefined)', 'active'),
  ('COc1ccc2nc3c4c(nccc4c2c1)-c1ncccc1C3=O', 'active'),
  ('S=C(S)OCN1CCOCC1', 'inactive'),
  ('O=C(O)/C=C\C(=O)NNc1ccccc1', 'active');

Please indicate how the test categorized `CCCCCCCCc1cc(Cl)c(O)c(Cl)c1` . active

Could you kindly confirm the outcome this assay logged for `Cc1ccccc1N=NC(C#N)C#N` ? active

So what was the verdict on `CN1CSC(=S)N(Cc2ccccc2)C1` in this test? active

Hi, sorry to bother you, what did the test record for `O=C(/C(Cl)=N/O)c1ccc(-c2ccccc2)cc1` ? active

Kindly provide the recorded test outcome for the following compound: `O=C(Cc1nc2cc(Cl)c(Cl)cc2nc1CC(=O)c1cccnc1)c1cccnc1` active

In this assay, the call recorded for NC(CS/C(Cl)=C/Cl)C(=O)O (centres undefined) was what? active

Outcome? `CC(=O)Oc1ccc(OC(C)=O)c2c1CC=CC2` inactive

Could you please tell me the result logged for `O=Nc1ccc2ccccc2c1O` in this assay? inactive

Can you look up the reported call for COc1ccc(C(OCC2OC(n3ccc(NC(=O)c4ccccc4)nc3=O)C(O)C2O)(c2ccccc2)c2ccccc2)cc1 (centres undefined) for me? active

Hey, what did the test say about `O=C(O)c1ccc2c(c1)C(=O)c1ccccc1C2=O` ? inactive

What did this assay record as the result for `COC(=O)c1ccc(Cl)c(NN)c1` ? inactive

# outcome recorded in this test, key = CCC(C)C1NC(=O)C(NC(=O)c2c3nc4c(C(=O)NC5C(=O)NC(C(C)CC)C(=O)N6CCCC6C(=O)N(C)CC(=O)N(C)C(C(C)C)C(=O)OC5C)ccc(C)c4oc-3c(C)c(=O)c2N)C(C)OC(=O)C(C(C)C)N(C)C(=O)CN(C)C(=O)C2CCCN2C1=O (centres undefined) (I: TIP[Sar][NMeV] / II: TIP[Sar][NMeV]; ester I:1-I:C, II:1-II:C; linker I:N-II:N via Actinocin(1to9); configuration not given here) active

In this assay, the call recorded for `COc1cccc(NC(=O)C(C#N)=C(SC)SC)c1` was what? active

The origin of these recorded values is PubChem BioAssay (NCI).
